The measured values listed here are drawn from ChEMBL document CHEMBL4014315.

# Experiment: Cytotoxicity against MDCK2 cells assessed as cell growth inhibition after 72 hrs by MTT assay
# Format: cell-based, Canis lupus familiaris, MDCK-II
# Setup Conditions: dog
GI50 at 72 h values, listed per item
Measure: GI50 at 72 h (µM)

Structure	Units Of Measure	Measured Value
CN(C)c1cccc(Nc2nc(-c3cccnc3)nc3ccccc23)c1	µM	14.1
Cc1cc(Nc2ccccc2)nc(-c2ccccc2)n1	µM	136
Oc1ccc(Nc2nc(-c3ccncc3)nc3ccccc23)cc1	µM	120
N#Cc1cccc(Nc2nc(-c3ccncc3)nc3ccccc23)c1	µM	112
Oc1cccc(Nc2nc(-c3ccncc3)nc3ccccc23)c1	µM	12.4
Cc1cc(Nc2cccc(C#N)c2)nc(-c2ccncc2)n1	µM	9.33
Oc1ccc(Nc2nc(-c3ccccc3)nc3ccccc23)cc1	µM	22.6
N#Cc1cccc(Nc2nc(-c3ccccc3)nc3ccccc23)c1	µM	14.2
FC(F)(F)c1cccc(Nc2nc(-c3ccncc3)nc3ccccc23)c1	µM	12.3
Cc1cc(Nc2ccc(O)c([N+](=O)[O-])c2)nc(-c2ccccc2)n1	µM	57.5
Cc1cc(Nc2ccc(C#N)cc2)nc(-c2ccccc2)n1	µM	28.4

====

# Target Of Assay: Broad substrate specificity ATP-binding cassette transporter ABCG2 (Homo sapiens, UniProt Q9UNQ0)
# Sequence (Q9UNQ0 whole entry, the tested form may be a part): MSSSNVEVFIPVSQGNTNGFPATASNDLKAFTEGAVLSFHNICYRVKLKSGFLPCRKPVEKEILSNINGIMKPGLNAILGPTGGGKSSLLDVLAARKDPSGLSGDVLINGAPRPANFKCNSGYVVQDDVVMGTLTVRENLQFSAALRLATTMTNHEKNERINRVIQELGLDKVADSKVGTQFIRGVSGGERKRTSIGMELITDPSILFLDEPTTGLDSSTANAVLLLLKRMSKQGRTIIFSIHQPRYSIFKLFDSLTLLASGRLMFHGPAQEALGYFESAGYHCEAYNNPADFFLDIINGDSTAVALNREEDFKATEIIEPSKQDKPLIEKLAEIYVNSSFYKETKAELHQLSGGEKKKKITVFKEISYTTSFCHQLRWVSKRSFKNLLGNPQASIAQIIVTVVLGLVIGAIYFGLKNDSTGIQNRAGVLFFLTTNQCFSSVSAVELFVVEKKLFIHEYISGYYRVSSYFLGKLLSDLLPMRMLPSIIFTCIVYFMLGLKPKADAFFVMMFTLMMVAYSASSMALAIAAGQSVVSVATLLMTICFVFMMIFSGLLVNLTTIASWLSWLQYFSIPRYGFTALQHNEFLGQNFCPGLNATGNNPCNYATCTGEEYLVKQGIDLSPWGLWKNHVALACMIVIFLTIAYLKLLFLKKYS
# Experiment: Inhibition of recombinant human GFP-fused ABCG2 expressed in MDCK2 cells assessed as reduction in Hoechst 33342 efflux preincubated for 30 mins followed by Hoechst 33342 addition measured immediately at 60 sec time interval for 120 mins by fluorescence assay
pIC50: −log10 of the molar value.
pIC50 values, listed per item

Structure	pIC50
COc1ccc(Nc2nc(-c3ccccn3)nc3ccccc23)cc1OC	5.97
OCc1cccc(Nc2nc(-c3cccnc3)nc3ccccc23)c1	6.09
OCc1cccc(Nc2nc(-c3ccncc3)nc3ccccc23)c1	6.04
O=S(=O)(F)c1cccc(Nc2nc(-c3ccncc3)nc3ccccc23)c1	5.86
c1ccc(Nc2nc(-c3ccccc3)nc3ccccc23)cc1	6.05
O=C(O)c1cccc(Nc2nc(-c3ccncc3)nc3ccccc23)c1	4.22
FC(F)(F)c1cccc(Nc2nc(-c3ccncc3)nc3ccccc23)c1	6.67
COc1ccc(Nc2cc(C)nc(-c3ccncc3)n2)cc1	6.06
N#Cc1ccc(Nc2nc(-c3cccnc3)nc3ccccc23)cc1	6.78
COc1ccc(Nc2nc(-c3ccncc3)nc3ccccc23)cc1OC	6.26
O=[N+]([O-])c1cc(Nc2nc(-c3cccnc3)nc3ccccc23)ccc1O	6.61
Cc1cc(Nc2ccccc2)nc(-c2ccccc2)n1	6.19

====

# Target Of Assay: Broad substrate specificity ATP-binding cassette transporter ABCG2 (Homo sapiens, UniProt Q9UNQ0)
# Experiment: Inhibition of recombinant human GFP-fused ABCG2 expressed in MDCK2 cells assessed as reduction in Hoechst 33342 efflux preincubated for 30 mins followed by Hoechst 33342 addition measured immediately at 60 sec time interval for 120 mins by fluorescence assay
pIC50: −log10 of the molar value.
Measure: pIC50

Structure	Measure	Measured Value
CC(C)(C)OC(=O)c1cccc(Nc2nc(-c3ccncc3)nc3ccccc23)c1	pIC50	6.52
COc1ccc(Nc2nc(-c3ccncc3)nc3ccccc23)cc1C(F)(F)F	pIC50	6.84
Fc1cccc(Nc2nc(-c3cccnc3)nc3ccccc23)c1	pIC50	6.81
O=[N+]([O-])c1cccc(Nc2nc(-c3cccnc3)nc3ccccc23)c1	pIC50	6.98
FC(F)(F)c1ccc(Nc2nc(-c3ccncc3)nc3ccccc23)cc1	pIC50	6.31
O=C(O)c1ccc(Nc2nc(-c3ccncc3)nc3ccccc23)cc1	pIC50	5.02
Oc1cccc(Nc2nc(-c3ccncc3)nc3ccccc23)c1	pIC50	5.97
N#Cc1cccc(Nc2nc(-c3ccccn3)nc3ccccc23)c1	pIC50	6.29
O=[N+]([O-])c1cccc(Nc2nc(-c3ccncc3)nc3ccccc23)c1	pIC50	6.93
COC(=O)c1cccc(Nc2nc(-c3ccncc3)nc3ccccc23)c1	pIC50	6.39
COC(=O)c1cccc(Nc2nc(-c3cccnc3)nc3ccccc23)c1	pIC50	6.44
Cc1cc(Nc2ccc(C#N)cc2)nc(-c2ccccc2)n1	pIC50	6.89
CN(C)c1cccc(Nc2nc(-c3cccnc3)nc3ccccc23)c1	pIC50	5.92
Cc1cc(Nc2ccc(O)c([N+](=O)[O-])c2)nc(-c2ccccc2)n1	pIC50	7.01
Cc1cc(Nc2cccc(C#N)c2)nc(-c2ccccc2)n1	pIC50	6.91
N#Cc1cccc(Nc2nc(-c3cccnc3)nc3ccccc23)c1	pIC50	6.97
COc1cccc(Nc2cc(C)nc(-c3ccncc3)n2)c1	pIC50	6.57

====

# Experiment: Cytotoxicity against ABCG2 over-expressing MDCK2 cells assessed as cell growth inhibition after 72 hrs by MTT assay
# Assay type: ADME, cell-based, Canis lupus familiaris, MDCK-II
# Setup Conditions: dog

Structure	GI50 at 72 h [µM]
N#Cc1cccc(Nc2nc(-c3ccccc3)nc3ccccc23)c1	10.4
N#Cc1cccc(Nc2nc(-c3ccncc3)nc3ccccc23)c1	88.1
Oc1ccc(Nc2nc(-c3ccccc3)nc3ccccc23)cc1	14.6
Cc1cc(Nc2cccc(C#N)c2)nc(-c2ccncc2)n1	6.92
Cc1cc(Nc2ccc(O)c([N+](=O)[O-])c2)nc(-c2ccccc2)n1	49
CN(C)c1cccc(Nc2nc(-c3cccnc3)nc3ccccc23)c1	10
Fc1cccc(Nc2nc(-c3ccccc3)nc3ccccc23)c1	18
N#Cc1ccc(Nc2nc(-c3cccnc3)nc3ccccc23)cc1	79.4
O=[N+]([O-])c1cccc(Nc2nc(-c3cccnc3)nc3ccccc23)c1	70.8
Fc1cccc(Nc2nc(-c3cccnc3)nc3ccccc23)c1	46.8
COc1ccc(Nc2nc(-c3ccncc3)nc3ccccc23)cc1C(F)(F)F	2.88
FC(F)(F)c1cccc(Nc2nc(-c3ccncc3)nc3ccccc23)c1	12.6
Cc1cc(Nc2ccc(C#N)cc2)nc(-c2ccccc2)n1	17.8
O=[N+]([O-])c1ccc(Nc2nc(-c3cccnc3)nc3ccccc23)cc1	73.3

====

# Target Of Assay: Broad substrate specificity ATP-binding cassette transporter ABCG2 (Homo sapiens)
# Experiment: Activation of ABCG2 (unknown origin) ATPase activity expressed in baculovirus infected high five cell membranes by ascorbic acid/ammonia molybdate reaction-based colorimetric analysis
# Setup Conditions: read-out: EC50
Measure: EC50 (nM)

Structure	Target Of Assay	Measure	Measured Value
Fc1cccc(Nc2nc(-c3cccnc3)nc3ccccc23)c1	Broad substrate specificity ATP-binding cassette transporter ABCG2 (Homo sapiens)	EC50	58
Cc1cc(Nc2cccc(C#N)c2)nc(-c2ccncc2)n1	Broad substrate specificity ATP-binding cassette transporter ABCG2 (Homo sapiens)	EC50	22
N#Cc1cccc(Nc2nc(-c3ccccc3)nc3ccccc23)c1	Broad substrate specificity ATP-binding cassette transporter ABCG2 (Homo sapiens)	EC50	15
N#Cc1cccc(Nc2nc(-c3cccnc3)nc3ccccc23)c1	Broad substrate specificity ATP-binding cassette transporter ABCG2 (Homo sapiens)	EC50	350
O=[N+]([O-])c1cccc(Nc2nc(-c3ccncc3)nc3ccccc23)c1	Broad substrate specificity ATP-binding cassette transporter ABCG2 (Homo sapiens)	EC50	4
Cc1cc(Nc2ccc(O)c([N+](=O)[O-])c2)nc(-c2ccccc2)n1	Broad substrate specificity ATP-binding cassette transporter ABCG2 (Homo sapiens)	EC50	1800
COc1cccc(Nc2nc(-c3ccncc3)nc3ccccc23)c1	Broad substrate specificity ATP-binding cassette transporter ABCG2 (Homo sapiens)	EC50	42
